# System: DOHH2 cells
# methodNotes: Cell proliferation inhibition in vitro, DOHH2 cells by CTG assay
# Type: cell-based
# conditionParameters: 72 hours, read-out: Inhibitions of cell activities IC50 (nM) DOHH2

molecule: C=CC(=O)N1C(c2nc(-c3ccc(C(=O)Nc4ccccn4)cc3)c3c(N)nccn23)[C@@H]2C[C@H]1CN2C(=O)OC(C)(C)C (stereo partly shown)
u: nM
IC50: 206

* * *

# System: TMD8 cells
# methodNotes: Cell proliferation inhibition in vitro, TMD8 cells by CCK-8 method
# Format: cell-based
# conditionParameters: Homo sapiens, 72 hours, read-out: Inhibitions of cell activities IC50 (nM) TMD8
IC50 values for the compounds below.
measurementLabel: IC50 (nM)

compound: C=CC(=O)N1C2C[C@@H](C1c1nc(-c3ccc(C(C)(O)c4ccccc4)cc3)c3c(N)nccn13)N(C(C)C)C2 (stereo partly shown)
targetOfAssay: TMD8 cells
u: nM
numericValue: 2.4

compound: CC#CC(=O)N1C2C[C@@H](C1c1nc(-c3ccc(Oc4ccccc4)cc3)c3c(N)nccn13)N(C(C)C)C2 (stereo partly shown)
targetOfAssay: TMD8 cells
u: nM
numericValue: 4.3

compound: CC#CC(=O)N1C2CN[C@@H](C2)C1c1nc(-c2ccc(Oc3ccccc3)cc2)c2c(N)nccn12 (stereo partly shown)
targetOfAssay: TMD8 cells
u: nM
numericValue: 12.3

compound: CC#CC(=O)N1C2CN[C@@H](C2)C1c1nc(-c2ccc(C(=O)Nc3cc(C(F)(F)F)ccn3)cc2)c2c(N)nccn12 (stereo partly shown)
targetOfAssay: TMD8 cells
u: nM
numericValue: 0.75

Data provenance: patent US10793576B2
